Tested on: L1210
Test: Cytotoxicity against mouse L1210 cells
Assay type: functional, cell-based
Conditions: Mus musculus, L1210
parameter: IC50 (µg/mL)
Answer format: numeric, µg/mL implied, no suffix.

Before answering, review these 3 worked examples.
COC(=O)C[C@@]1(C)C[C@@](C)(CC(C)CC/C=C/CC/C=C/c2ccccc2)OO1 (some centres undefined) ... 0.003
CC(CC/C=C/CC/C=C/c1ccccc1)C[C@@]1(C)C[C@@](C)(CC(=O)O)OO1 (some centres undefined) [EPIPLAKINIC ACID D] ... 0.017
CC(CCCC/C=C/CC/C=C\c1ccccc1)C[C@]1(C)C[C@@](C)(CC(=O)O)OO1 (some centres undefined) ... 0.017

The recorded IC50 for entry `CCCCCCCCCCCCCCC[C@@]1(OC)C=C[C@H](CC(=O)OC)OO1` equals 0.85

The measurements presented in this section are drawn from ChEMBL document CHEMBL1149799.
